- measured-on: 5-hydroxytryptamine receptor 1A (Homo sapiens)
- Sequence (P08908 whole entry): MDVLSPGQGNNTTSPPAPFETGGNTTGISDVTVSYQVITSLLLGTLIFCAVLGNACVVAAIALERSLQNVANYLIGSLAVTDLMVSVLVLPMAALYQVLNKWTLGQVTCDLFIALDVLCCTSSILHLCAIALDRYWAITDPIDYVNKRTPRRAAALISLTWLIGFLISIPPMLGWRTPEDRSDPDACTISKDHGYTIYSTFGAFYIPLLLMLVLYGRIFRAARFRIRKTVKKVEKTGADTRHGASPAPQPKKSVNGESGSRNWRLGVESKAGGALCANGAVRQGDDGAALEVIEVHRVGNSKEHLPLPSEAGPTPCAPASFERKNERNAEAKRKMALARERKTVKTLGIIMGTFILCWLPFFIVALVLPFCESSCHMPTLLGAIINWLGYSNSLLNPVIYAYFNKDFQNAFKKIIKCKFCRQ
- assay-comment: Agonist activity at human 5HT1AR expressed in CHO cells assessed as increase in [35S]GTPgammaS binding by liquid scintillation spectrometry
assay-endpoint: EC50 (nM)

substance-smiles: Cn1c(=O)cnn(CCCCN2CCN(c3ccccn3)CC2)c1=O
experimental-value: 0.08
//
substance-smiles: Cn1c(=O)cnn(CCCCN2CCN(c3cccc(F)n3)CC2)c1=O
experimental-value: 0.2
//
substance-smiles: Cn1c(=O)cnn(CCCCN2CCN(c3ccccc3)CC2)c1=O
experimental-value: 0.3
//
substance-smiles: Cn1c(=O)cnn(CCCCN2CCN(c3ncccc3F)CC2)c1=O
experimental-value: 0.8

---

# Ki per entry
- measured-on: Adrenergic receptor alpha-1 (Homo sapiens, UniProt P35348+P25100+P35368)
- Sequence (P35348 whole entry): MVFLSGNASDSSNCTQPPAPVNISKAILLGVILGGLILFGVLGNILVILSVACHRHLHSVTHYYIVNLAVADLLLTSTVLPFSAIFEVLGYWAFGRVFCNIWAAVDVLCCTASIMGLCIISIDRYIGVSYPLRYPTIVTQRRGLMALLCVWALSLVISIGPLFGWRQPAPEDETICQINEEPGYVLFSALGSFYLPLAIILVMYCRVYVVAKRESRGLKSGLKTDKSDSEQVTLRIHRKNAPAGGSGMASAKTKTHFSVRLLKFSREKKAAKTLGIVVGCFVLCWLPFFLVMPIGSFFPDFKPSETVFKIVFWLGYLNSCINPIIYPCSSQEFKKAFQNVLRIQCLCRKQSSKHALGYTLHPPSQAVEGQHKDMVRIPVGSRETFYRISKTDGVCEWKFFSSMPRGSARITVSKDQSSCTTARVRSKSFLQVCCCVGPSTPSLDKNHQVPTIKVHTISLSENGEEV
- Sequence (P25100 whole entry): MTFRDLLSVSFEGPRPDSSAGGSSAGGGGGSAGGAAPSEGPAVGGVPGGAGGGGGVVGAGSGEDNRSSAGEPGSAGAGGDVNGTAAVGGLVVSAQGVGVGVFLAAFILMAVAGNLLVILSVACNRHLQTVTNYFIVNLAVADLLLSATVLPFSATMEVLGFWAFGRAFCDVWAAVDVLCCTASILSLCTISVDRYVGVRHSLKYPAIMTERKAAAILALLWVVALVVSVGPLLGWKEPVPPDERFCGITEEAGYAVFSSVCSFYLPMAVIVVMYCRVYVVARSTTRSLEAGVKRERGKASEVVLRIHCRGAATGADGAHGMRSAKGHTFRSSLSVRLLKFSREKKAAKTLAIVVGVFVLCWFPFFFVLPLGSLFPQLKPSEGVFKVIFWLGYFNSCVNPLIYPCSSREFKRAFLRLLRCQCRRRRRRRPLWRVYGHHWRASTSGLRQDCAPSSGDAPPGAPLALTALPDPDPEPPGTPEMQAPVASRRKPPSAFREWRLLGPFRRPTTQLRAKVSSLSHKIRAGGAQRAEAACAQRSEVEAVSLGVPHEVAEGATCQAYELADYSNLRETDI
- Sequence (P35368 whole entry): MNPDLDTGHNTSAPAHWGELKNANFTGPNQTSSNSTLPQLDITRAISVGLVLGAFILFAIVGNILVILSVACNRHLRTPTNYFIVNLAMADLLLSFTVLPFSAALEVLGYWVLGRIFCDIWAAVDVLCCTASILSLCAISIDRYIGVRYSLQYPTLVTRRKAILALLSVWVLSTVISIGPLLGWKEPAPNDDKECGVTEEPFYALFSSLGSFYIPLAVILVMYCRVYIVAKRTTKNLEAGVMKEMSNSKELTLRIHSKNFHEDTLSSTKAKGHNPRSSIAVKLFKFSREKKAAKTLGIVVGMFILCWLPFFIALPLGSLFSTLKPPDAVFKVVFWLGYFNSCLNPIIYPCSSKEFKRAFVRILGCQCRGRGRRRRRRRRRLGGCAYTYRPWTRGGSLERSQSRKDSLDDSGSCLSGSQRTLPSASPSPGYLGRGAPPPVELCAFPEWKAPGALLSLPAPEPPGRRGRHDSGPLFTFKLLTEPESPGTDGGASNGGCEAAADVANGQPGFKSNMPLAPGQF
- assay-comment: Displacement of [3H]-7-methoxyprazosin from alpha1 adrenergic receptor (unknown origin) by competition binding assay

compound: Cn1c(=O)cnn(CCCCN2CCN(c3ccccc3F)CC2)c1=O
units: µM
relation-symbol: =
Ki: 0.00973
--
compound: Cn1c(=O)cnn(CCCCN2CCN(c3cccc(Br)n3)CC2)c1=O
units: µM
relation-symbol: >
Ki: 10
--
compound: Cn1c(=O)cnn(CCCCN2CCN(c3cccc(O)c3)CC2)c1=O
units: µM
relation-symbol: >
Ki: 10
--
compound: CCOc1ccc2cccc(N3CCN(CCCCn4ncc(=O)n(C)c4=O)CC3)c2c1
units: µM
relation-symbol: =
Ki: 0.048
--
compound: Cn1c(=O)cnn(CCCCN2CCN(c3ccc(F)cn3)CC2)c1=O
units: µM
relation-symbol: >
Ki: 10
--
compound: Cn1c(=O)cnn(CCCCN2CCN(c3ncccc3F)CC2)c1=O
units: µM
relation-symbol: >
Ki: 10
--
compound: Cn1c(=O)cnn(CCCCN2CCN(c3c(F)cccc3C#N)CC2)c1=O
units: µM
relation-symbol: >
Ki: 10
--
compound: Cn1c(=O)cnn(CCCN2CCN(c3ccccc3)CC2)c1=O
units: µM
relation-symbol: >
Ki: 10
--
compound: Cn1c(=O)cnn(CCCCN2CCN(c3ccccc3S)CC2)c1=O
units: µM
relation-symbol: >
Ki: 10
--
compound: COc1ccccc1N1CCN(CCCCn2ncc(=O)n(C)c2=O)CC1
units: µM
relation-symbol: =
Ki: 0.00675
--
compound: COc1ccc(N2CCN(CCCCn3ncc(=O)n(C)c3=O)CC2)c(OC)c1
units: µM
relation-symbol: >
Ki: 10
--
compound: COc1ccccc1N1CCN(CCCCCn2ncc(=O)n(C)c2=O)CC1
units: µM
relation-symbol: >
Ki: 10
--
compound: Cn1c(=O)cnn(CCCCN2CCN(c3ccc(I)cc3)CC2)c1=O
units: µM
relation-symbol: =
Ki: 0.103
--
compound: Cn1c(=O)cnn(CCCCN2CCN(c3cccc4ccc(O)cc34)CC2)c1=O
units: µM
relation-symbol: =
Ki: 0.0245
--
compound: Cn1c(=O)cnn(CCCCN2CCN(c3ccccc3C#N)CC2)c1=O
units: µM
relation-symbol: =
Ki: 0.0073
--
compound: Cn1c(=O)cnn(CCCCN2CCN(c3c(Br)cccc3C#N)CC2)c1=O
units: µM
relation-symbol: =
Ki: 0.45
--
compound: Cn1c(=O)cnn(CCCCN2CCN(c3cccc(F)n3)CC2)c1=O
units: µM
relation-symbol: >
Ki: 10
--
compound: CNc1ccccc1N1CCN(CCCCn2ncc(=O)n(C)c2=O)CC1
units: µM
relation-symbol: =
Ki: 0.45
--
compound: COc1ccc(N2CCN(CCCCn3ncc(=O)n(C)c3=O)CC2)c(C#N)c1
units: µM
relation-symbol: =
Ki: 0.38
--
compound: Cn1c(=O)cnn(CCCCN2CCN(c3ncccn3)CC2)c1=O [EPTAPIRONE]
units: µM
relation-symbol: >
Ki: 10
--
compound: COc1ccccc1N1CCN(CCCn2ncc(=O)n(C)c2=O)CC1
units: µM
relation-symbol: >
Ki: 10
--
compound: Cn1c(=O)cnn(CCCCN2CCN(c3ccccc3OCCCF)CC2)c1=O
units: µM
relation-symbol: =
Ki: 0.28
